Values were extracted from patent US20020165132A1.

testSystem: SSTR4 Receptor (cloned somatostatin receptor)
Sequence (P30938 whole entry): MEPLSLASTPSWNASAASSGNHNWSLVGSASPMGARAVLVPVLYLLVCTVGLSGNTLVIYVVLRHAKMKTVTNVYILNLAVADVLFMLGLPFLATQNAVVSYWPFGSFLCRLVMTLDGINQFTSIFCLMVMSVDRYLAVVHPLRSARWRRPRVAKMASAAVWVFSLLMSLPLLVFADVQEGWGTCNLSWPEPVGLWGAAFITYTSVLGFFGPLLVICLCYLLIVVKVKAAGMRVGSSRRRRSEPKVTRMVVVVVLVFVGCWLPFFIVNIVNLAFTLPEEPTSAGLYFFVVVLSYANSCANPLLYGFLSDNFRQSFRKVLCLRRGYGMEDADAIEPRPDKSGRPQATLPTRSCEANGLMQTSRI
experiment: inhibition of radioligand binding to cloned SSTR4
Positions of bridges follow the written chain, without caps; N, C: chain ends. Non-standard residues stand in square brackets, D forms with d. No end group written: not given here. AlaL = alanine half of a lanthionine (monosulfide) bridge; Thr(ol) = C[C@@H](O)[C@H](N)CO
Entries and their pIC50 values follow.
Notebook: values listed as pIC50 are -log10 of the concentration (mol/L).

Example binders with recorded pIC50:
binder="H-[dF][AlaL]F[dW]KT[AlaL][Thr(ol)] (thioether 2-7) [H-D-Phe-c[AlaLPhe-D-Trp-Lys-Thr-AlaL]-Thr-ol]" reportedmetric=pIC50 measuredresult=9.00
binder="H-[dF][AlaL]F[dW]KT[AlaL]T-NH2 (thioether 2-7) [H-D-Phe-c[AlaLPhe-D-Trp-Lys-Thr-AlaL]-Thr-NH2]" reportedmetric=pIC50 measuredresult=9.30
binder="H-[dF][AlaL]F[dW]KT[AlaL]-OH (thioether 2-7) [H-D-Phe-c[AlaLPhe-D-Trp-Lys-Thr-AlaL]-OH]" reportedmetric=pIC50 measuredresult=6.30

Challenge: I am curious: what pIC50 value has been reported for AGCKNFFWKTFTSC (peptide, UniProt P61278 103-116, looked up, disulfide 3-14 (inferred)) [Somatostatin-14] ?
Response given: 9.07
